target.or.system: T1, TNFR1 (Homo sapiens, UniProt P19438)
T1 chain: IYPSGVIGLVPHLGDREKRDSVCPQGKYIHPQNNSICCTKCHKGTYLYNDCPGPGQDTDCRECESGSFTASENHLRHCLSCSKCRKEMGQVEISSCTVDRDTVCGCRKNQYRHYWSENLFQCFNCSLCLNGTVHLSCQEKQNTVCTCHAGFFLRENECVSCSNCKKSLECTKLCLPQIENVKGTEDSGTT
assay.method.text: yeast display SC50
measured.quantity: apparent Kd (screen) (nM)

binder: L64G (designed binder) MTLQELLREEALRRAEAEAFRYALELLAEKFPEQKEYLLDLAEEIESQIRSLSGVDVEDVRKFGDKEWAWVKELLAEHPAELAEVEAARAARLAELRAEVEAKVAA
unit.abbreviation: nM
apparent Kd (screen): 1.69
//
binder: E33I (designed binder) MTLQELLREEALRRAEAEAFRYALELLAEKFPIQKEYLLDLAEEIESQIRSLSGVDVEDVRKFLDKEWAWVKELLAEHPAELAEVEAARAARLAELRAEVEAKVAA
unit.abbreviation: nM
apparent Kd (screen): 0.718

[A] V71S (designed binder) MTLQELLREEALRRAEAEAFRYALELLAEKFPEQKEYLLDLAEEIESQIRSLSGVDVEDVRKFLDKEWAWSKELLAEHPAELAEVEAARAARLAELRAEVEAKVAA
[B] E33Q (designed binder) MTLQELLREEALRRAEAEAFRYALELLAEKFPQQKEYLLDLAEEIESQIRSLSGVDVEDVRKFLDKEWAWVKELLAEHPAELAEVEAARAARLAELRAEVEAKVAA
Q: Between A and B , whose measured apparent Kd (screen) reads higher? Give the label under which the chosen entry appears.
Result: A
